System: MCF-7 (breast cancer) cell line
Assay: MTT cell viability assay, MCF-7
Type: cell-based, human
Conditions: MTT, 72 h, 1-100 µM, mean ± SD
Readout Label: IC50 (µM)

Record Smiles	Display Unit	Endpoint Value
COc1ccc(N2CCN(c3nc(N)nc(CSc4cc(Cl)c(C)cc4S(=O)(=O)N=c4[nH]c5ccccc5[nH]4)n3)CC2)cc1	µM	110
Cc1cc(S(=O)(=O)N=c2[nH]c3ccccc3[nH]2)c(SCc2nc(N)nc(N3CCN(C)CC3)n2)cc1Cl	µM	82
Cc1cc(S(=O)(=O)N=c2[nH]c3ccccc3[nH]2)c(SCc2nc(N)nc(N3CCOCC3)n2)cc1Cl	µM	99

Where do the numbers come from? From paper PMC7215599.
